So I've got a bunch of binders here, and I need their pKd values.
- measured.target: T1, human CD33 extracellular domain (human, UniProt P20138 18-259)
- T1 construct: soluble monomeric ECD; also called human CD33 ECD; hCD33
- assay: SPR, Fab captured, 37C;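 further: surface plasmon resonance with Fabs captured on anti-Fab surface, soluble monomeric CD33 as analyte at several concentrations, double-referenced 1:1 model fit, KD as koff/kon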
Give bare numbers, as −log10 of the molar value.

ADI-10157 Fab (Fab, V domains shown, Fab fragment; also called Ab13) VH: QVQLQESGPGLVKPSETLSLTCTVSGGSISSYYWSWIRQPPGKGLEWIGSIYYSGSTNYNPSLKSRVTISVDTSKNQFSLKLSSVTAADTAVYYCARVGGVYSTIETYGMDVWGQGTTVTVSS VL: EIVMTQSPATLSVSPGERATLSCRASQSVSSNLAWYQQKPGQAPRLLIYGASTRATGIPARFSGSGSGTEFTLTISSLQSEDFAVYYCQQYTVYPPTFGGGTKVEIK ... 8.57

Provide each entry's pKd from the list below.
1. ADI-11830 Fab (Fab, V domains shown, Fab fragment; also called Ab9) VH: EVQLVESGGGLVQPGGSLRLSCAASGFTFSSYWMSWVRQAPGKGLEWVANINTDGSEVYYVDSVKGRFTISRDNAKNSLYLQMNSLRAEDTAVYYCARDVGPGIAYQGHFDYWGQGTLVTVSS VL: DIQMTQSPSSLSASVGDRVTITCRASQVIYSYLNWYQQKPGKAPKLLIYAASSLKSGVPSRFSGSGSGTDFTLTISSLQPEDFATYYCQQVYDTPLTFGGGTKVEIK
2. Fab fragment from Lintuzumab (Fab, V domains shown, Fab fragment) VH: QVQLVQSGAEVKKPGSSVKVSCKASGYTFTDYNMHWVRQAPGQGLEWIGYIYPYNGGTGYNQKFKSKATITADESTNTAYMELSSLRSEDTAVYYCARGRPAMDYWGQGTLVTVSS VL: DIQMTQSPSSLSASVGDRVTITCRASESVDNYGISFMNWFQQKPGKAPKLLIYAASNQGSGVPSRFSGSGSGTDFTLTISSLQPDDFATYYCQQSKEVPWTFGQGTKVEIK

1. 8.56
2. 7.78
